B1: ZNF511 (parent)
chain: YEHHYHTLHGNVCSFCKRAFPSGH

Variants of: B1
test-details: protein stability index of a GFP-peptide fusion (GPS, HEK-293T) (PSI 1-6); higher = more stable;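 note: lentivirally expressed fusions sorted by FACS into six bins by GFP to DsRed ratio, PSI derived from sequencing read proportions per bin multiplied by bin number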
particulars: c terminus: a fixed tail appended
measurement-label: protein stability index
Answers are plain numbers.

# count of solved cases: 3
INSERT INTO measurements (alteration, recorded_measurement) VALUES
  ('N11Y', 1.99),
  ('C16F', 1.99),
  ('T7A', 1.95);

INPUT: # query: protein stability index of entry `G10L`
OUTPUT: 1.95

The measured values listed here are drawn from the supplement of paper PMC10567573.
